Where do the numbers come from? From patent WO2007054120A1.

# target of assay: T1, recombinant fibronectin domain ED-B (His)6 (human, UniProt P02751 1266-1356)
# T1 construct: domain: ED-B; Biotinylated ED-B was used only in pannings; also called rekombinantes ED-B; human ED-B
# assay comment: SPR (BIAcore), about 100 RU ED-B on chip, Fab in flow
Listed next: entries and their corresponding pKd.
Please treat pKd as minus the base-10 logarithm of the molar concentration.

MOR03258 (Fab, V domains shown) VH: QVQLVESGGGLVQPGGSLRLSCAASGFTFSSYGMHWVRQAPGKGLEWVSVISNQSNYIYYADSVKGRFTISRDNSKNTLYLQMNSLRAEDTAVYYCARNKVGFDVWGQGTLVTVSS VL: DIALTQPASVSGSPGQSITISCTGTSSDGGGYNTVSWYQQHPGKAPKLMIYYVHKRPSGVSNRFSGSKSGNTASLTISGLQAEDEADYYCQSWDLLAPSVVFGGGTKLTVL | 10.40

Consider now this further binder.
Just so you know, measured pKd for MOR03246 (Fab, V domains shown) VH: QVQLVQSGAEVKKPGASVKVSCKASGYTFTGFYINWVRQAPGQGLEWMGWINPYSGNTRYAQKFQGRVTMTRDTSISTAYMELSSLRSEDTAVYYCARSPVYYKYDYWGQGTLVTVSS VL: DIVLTQPPSVSGAPGQRVTISCSGSSSNIGSNTVRWYQQLPGTAPKLLIYSNNKRPSGVPDRFSGSKSGTSASLAITGLQSEDEADYYCQSWDPRSFTVFGGGTKLTVL came out at 9.22
